Here the recorded pIC50 is given for each entry.
# measured target: BRAFV600E full-length (amino acids 2-766) (Homo sapiens, UniProt P15056, V600E)
# Construct: His6-tagged BRAFV600E full-length (amino acids 2-766); His6; made in house; host or cells: baculovirus expression system (insect cells)
# Sequence (P15056 2-766 V600E): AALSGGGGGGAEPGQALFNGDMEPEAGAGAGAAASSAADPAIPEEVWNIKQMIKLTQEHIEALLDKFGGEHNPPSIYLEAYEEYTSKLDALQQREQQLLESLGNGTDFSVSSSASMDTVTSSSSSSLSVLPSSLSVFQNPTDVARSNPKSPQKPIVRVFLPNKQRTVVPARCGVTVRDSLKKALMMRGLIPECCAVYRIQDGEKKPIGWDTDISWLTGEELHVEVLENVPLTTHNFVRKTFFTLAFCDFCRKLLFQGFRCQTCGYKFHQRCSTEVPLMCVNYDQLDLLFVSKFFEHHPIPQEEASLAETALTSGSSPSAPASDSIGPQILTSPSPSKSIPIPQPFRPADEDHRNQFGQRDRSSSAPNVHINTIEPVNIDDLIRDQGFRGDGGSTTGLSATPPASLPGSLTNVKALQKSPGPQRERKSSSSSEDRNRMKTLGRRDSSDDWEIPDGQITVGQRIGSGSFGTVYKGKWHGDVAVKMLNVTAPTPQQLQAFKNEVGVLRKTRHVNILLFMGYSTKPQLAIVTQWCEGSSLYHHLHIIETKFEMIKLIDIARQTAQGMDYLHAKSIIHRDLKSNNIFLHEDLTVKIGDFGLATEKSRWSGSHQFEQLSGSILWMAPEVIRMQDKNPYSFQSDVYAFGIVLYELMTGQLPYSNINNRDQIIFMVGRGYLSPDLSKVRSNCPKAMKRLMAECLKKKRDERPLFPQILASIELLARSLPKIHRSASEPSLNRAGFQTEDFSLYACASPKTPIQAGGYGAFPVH
# assay remarks: B-Raf Accelerated MEK ATPase assay (BRAMA)
# Format: biochemical
# particulars: B-Raf pIC50, Table 1b; later runs, average pIC50 for the one or more runs, categorized
pIC50: −log10 of the molar value.
readout: pIC50

molecule_smiles=CC(C)c1nc(-c2cccc(NS(=O)(=O)c3cc(F)ccc3F)c2F)c(-c2ccnc(NCCNS(C)(=O)=O)n2)s1 reported_value="≥ 8.50"
molecule_smiles=CC(C)(C)c1nc(-c2cccc(NS(=O)(=O)c3ccco3)c2Cl)c(-c2ccnc(N)n2)s1 reported_value="≥ 8.50"
molecule_smiles=CC(C)Nc1nccc(-c2sc(C(C)C)nc2-c2cccc(NS(=O)(=O)c3cccc(F)c3)c2)n1 reported_value="6.00 to 7.50"
molecule_smiles=CC(C)(C)c1nc(-c2cccc(NS(=O)(=O)c3c(F)cccc3F)c2F)c(-c2ccnc(N)n2)o1 reported_value="≥ 8.50"
